- System: P388 leukemia ip, CD2F1 mice, survival T/C
- test-protocol: NCI In Vivo Anticancer Drug Screen. Data for tumor model P388 Leukemia (intraperitoneal) in CD2F1 (CDF1) mice
- reported-conditions: endpoint: median survival time; dose: 50.0 mg/kg/injection; schedule: Q01DX009 (ip); vehicle: saline
Toxic doses and inconclusive results are not listed. How the source made its calls: active means survival T/C of 150% or more; inactive means T/C below 125% in these data.
Choose one outcome from this list and give only that: active, inactive

- molecule: "CC1(CCl)CC(=O)N1C(N)=O (stereo not given)"
  class-label: "inactive"
- molecule: "CC(CSc1ccccc1)C(Sc1ccccc1)Sc1ccccc1 (stereo not given)"
  class-label: "inactive"
- molecule: "CCCCCCC[CH2][Sn]([CH2]CCCCCCC)([S]CC(=O)OCCCC)[S]CC(=O)OCCCC"
  class-label: "inactive"
- molecule: "O=C(O)CC(=O)O.[NH-]CC[NH-].[Pt+2]"
  class-label: "inactive"
- molecule: "CC1C(=O)C(C)C(c2ccc(Cl)cc2)OC1c1ccc(Cl)cc1 (stereo not given)"
  class-label: "inactive"

-- ask What classification did "COc1ccccc1N=Nc1cc(S(=O)(=O)O)c2ccccc2c1O" end up with in this test?
-- reply inactive

-- ask Field: outcome | Entry: "N#CC1(C#N)C(CCl)C1(C#N)C#N"
-- reply inactive

-- ask Could you kindly confirm the outcome this assay logged for "c1ccc(Cc2cc(-c3ccccc3)[nH]c2-c2ccccc2)cc1" ?
-- reply inactive

---

- Test system: P388 leukemia ip, CD2F1 mice, survival T/C
- test-protocol: NCI In Vivo Anticancer Drug Screen. Data for tumor model P388 Leukemia (intraperitoneal) in CD2F1 (CDF1) mice
- reported-conditions: endpoint: median survival time; dose: 200.0 mg/kg/injection; schedule: Q01DX005 (ip); vehicle: Klucel (hydroxypropylcellulose) (HPC); higher = longer survival
Toxic doses and inconclusive results are not listed.
Listed below: T/C values for each entry.

- compound: "CN(CC(=O)O)N=Nc1ccc(C(N)=O)cc1"
  measured: "100 % of control"

-- ask Which T/C is listed for CCOP1(=O)OC(c2ccccc2)C(C)N1C (stereo not drawn) ?
-- reply 107 % of control

-- ask T/C lookup needed for CC1C=CC(C)C2C(=O)C3C(C)C=CC(C)C3C(=O)C12 (stereo not drawn) , thanks.
-- reply 87 % of control

---

- Test system: P388 leukemia ip, CD2F1 mice, survival T/C
- test-protocol: NCI In Vivo Anticancer Drug Screen. Data for tumor model P388 Leukemia (intraperitoneal) in CD2F1 (CDF1) mice
- reported-conditions: endpoint: median survival time; dose: 200.0 mg/kg/injection; schedule: Q01DX009 (ip); vehicle: saline; higher = longer survival
Inconclusive results and toxic doses are left out.
Entries and their measured T/C follow.

Below, each entry is followed by its recorded T/C result.
- compound: "Cc1cc(C(=O)NN)c(C#N)c(=O)[nH]1"
  T/C: "109 % of control"
- compound: "CCNCC(=O)Nc1ccc(C2NC(=O)C(C)(C)c3ccccc32)cc1 (configuration not stated)"
  T/C: "97 % of control"
- compound: "CCN(CC)CC(C)=O"
  T/C: "104 % of control"

-- ask What does the data say about its T/C? Entry: CC1=CC(OC2CCCCO2)CC(C)(C)C1 (configuration not stated)
-- reply 101 % of control

-- ask Look up T/C for this compound: "CC(=O)NC1CC(C)(C)NC(C)(C)C1"
-- reply 95 % of control

-- ask What value of T/C has been recorded for this entry: OCC1OC(OC2C3CSC(O3)C(O)C2O)C(O)C(O)C1O (configuration not stated)
-- reply 106 % of control

---

- Test system: P388 leukemia ip, CD2F1 mice, survival T/C
- test-protocol: NCI In Vivo Anticancer Drug Screen. Data for tumor model P388 Leukemia (intraperitoneal) in CD2F1 (CDF1) mice
- reported-conditions: endpoint: median survival time; dose: 240.0 mg/kg/injection; schedule: Q01DX005 (ip); vehicle: saline with Tween-80; higher = longer survival
Toxic doses and inconclusive results are not listed.
Below, each entry is listed with its recorded T/C.

Worked cases, T/C given:
- compound: "COc1cc(OC)c(Cc2cc3c(cc2OC)OCO3)c(OC)c1"
  measured: "87 % of control"
- compound: "CCCCC1(C(O)CC)Sc2ccccc2N1C (stereo not given)"
  measured: "110 % of control"

-- ask Item under review: COc1ccc(C(c2cc3c(cc2O)OCO3)n2ccnc2)cc1 (stereo not given) . Reported T/C?
-- reply 96 % of control

-- ask I would be grateful if you could share the reported T/C for "CC(C)B1N(C(C)(C)C)B(C(C)C)N(C(C)(C)C)B(C(C)C)N1C(C)(C)C" .
-- reply 104 % of control

-- ask Consider the compound shown here: "O=c1[nH]c(=O)c2c([nH]1)oc1ccccc12" What is its recorded T/C?
-- reply 98 % of control

---

- System: P388 leukemia ip, CD2F1 mice, survival T/C
- test-protocol: NCI In Vivo Anticancer Drug Screen. Data for tumor model P388 Leukemia (intraperitoneal) in CD2F1 (CDF1) mice
- reported-conditions: endpoint: median survival time; dose: 12.5 mg/kg/injection; schedule: Q01DX009 (ip); vehicle: saline; higher = longer survival
Toxic doses and inconclusive results are not listed.
Entries and their T/C values follow.

Study these solved cases before continuing.
- molecule: "Nc1ncnc2c1ncn2C1OC(CO)C(O)C1O (stereo not given)"
  subject-of-test: "P388 leukemia ip, CD2F1 mice, survival T/C"
  T/C: "103 % of control"
- molecule: "CCCCCCCCCCCCCCCC[N+](C)(C)CCNC(=O)C1CSC(C)(C)N1C=O (stereo not given)"
  subject-of-test: "P388 leukemia ip, CD2F1 mice, survival T/C"
  T/C: "106 % of control"
- molecule: "CN=C(NC(C)C)c1ccccc1"
  subject-of-test: "P388 leukemia ip, CD2F1 mice, survival T/C"
  T/C: "91 % of control"
- molecule: "Cn1nc[n+](C)n1"
  subject-of-test: "P388 leukemia ip, CD2F1 mice, survival T/C"
  T/C: "91 % of control"
- molecule: "C/C(COc1ccc([N+](=O)[O-])cc1)=N/NS(=O)(=O)c1cc(Cl)c(Cl)cc1Cl"
  subject-of-test: "P388 leukemia ip, CD2F1 mice, survival T/C"
  T/C: "101 % of control"

-- ask Consider the molecule "CC(C)[CH2][Pb]([CH2]C(C)C)([CH2]C(C)C)[n]1ccnc1" and give its measured T/C.
-- reply 111 % of control

-- ask T/C lookup needed for "CCCCCCC(=O)/C=C/c1ccc(OC(=O)c2ccc([N+](=O)[O-])cc2)cc1" , thanks.
-- reply 105 % of control

-- ask Reported T/C for C=CC1(C)CCC2C(=CCC3C2(C)CC(O)C(O)C3(C)COC2OC(CO)C(O)C(O)C2O)C1 (stereo not given) : what is it?
-- reply 99 % of control

-- ask Quick one: T/C for Cc1cn(C2CC(F)C(CO)O2)c(=O)[nH]c1=O (stereo not given) ?
-- reply 106 % of control

-- ask Any idea what its T/C is? The molecule is "O=C(C1=C(NCc2ccccc2)CCCC1)c1ccccc1"
-- reply 97 % of control

-- ask T/C lookup needed for CC1(C(=O)O)CCCC2(C)C3=CC(=O)OC3(OO)CCC12 (stereo not given) , thanks.
-- reply 104 % of control

-- ask Any idea what T/C was measured for "Clc1ccc2ccc3ccccc3c2n1" ?
-- reply 101 % of control

-- ask So what does the record say about T/C for "CC(=O)NC1CC(C)(C)NC(C)(C)C1" ?
-- reply 100 % of control

-- ask What does the data say about its T/C? Entry: CC(=O)N/C(=C/c1ccccc1)C(=O)N1CCCC1C(=O)O (stereo not given)
-- reply 105 % of control

-- ask Look at this molecule and give its reported T/C. "CCCCCCCCC[N+]1([O-])CCCCCC1"
-- reply 100 % of control

---

- Test system: P388 leukemia ip, CD2F1 mice, survival T/C
- test-protocol: NCI In Vivo Anticancer Drug Screen. Data for tumor model P388 Leukemia (intraperitoneal) in CD2F1 (CDF1) mice
- reported-conditions: endpoint: median survival time; dose: 200.0 mg/kg/injection; schedule: Q01DX001 (ip); vehicle: Klucel (hydroxypropylcellulose) (HPC); higher = longer survival
Inconclusive results and toxic doses are left out.
Below is a list of entries, each paired with its recorded T/C value.

- compound: "O=C1c2ccccc2C(=O)C23OC12C1C=CC3CC1 (stereo not given)"
  endpoint-label: "T/C"
  measured: "93 % of control"
- compound: "COc1ccc(C2CC(C)(OC)Oc3cc4c(cc32)OCO4)cc1 (stereo not given)"
  endpoint-label: "T/C"
  measured: "94 % of control"
- compound: "COc1ccccc1N=Nc1c(O)n(-c2ccccc2Cl)c(=S)n(-c2ccccc2OC)c1=O"
  endpoint-label: "T/C"
  measured: "101 % of control"
- compound: "CC1(O)C2C3C(I)C4C5C3C1C5C42 (stereo not given)"
  endpoint-label: "T/C"
  measured: "88 % of control"

Field: next compound
-- ask So what's the measured T/C for this one? Cc1ccc(S(=O)(=O)C23N=NC(C)(C)C2C2CC3C3CN=NC32)cc1 (stereo not given)
-- reply 109 % of control
